- Assay Comment: background-corrected fluorescence of 3'-dye-labeled ssDNA relative to brightest sequence (3'-GCGCG) (fraction); higher = brighter dye fluorescence (less quenching)
- Condition Summary: dye: Cy5 (3' terminal)
Each record's class is read off its background-corrected fluorescence using these ranges: low-valued: < 0.4; mid-valued: ≥ 0.4 and < 0.5; high-valued: ≥ 0.5

Answered cases to consult:
* TTTTTGCAGCAGCATGCTGATTTTTTTTTTTTTTTTTTAC [CATTT] | low-valued
* TTTTTGCATGCGCATGATGATTTTTTTTTTTTTTTTATCC [CCTAT] | low-valued
* TTTTTTGCTCATCATGATGCTTTTTTTTTTTTTTTAGGCA [ACGGA] | mid-valued
* TTTTTTGCTGCGCATGATGATTTTTTTTTTTTTTTAATCC [CCTAA] | low-valued
* TTTTTTCATGATCATGCTGCTTTTTTTTTTTTTTTGCGAA [AAGCG] | high-valued

Enquiry: Record "TTTTTTGATCATGATCATGATTTTTTTTTTTTTTTCGCGC" — which class?
Return: high-valued

Enquiry: Sort TTTTTTGAGCATGAGCATGCTTTTTTTTTTTTTTTCTCTA [ATCTC] into one of the categories.
Return: low-valued

Enquiry: Lab note: which band did TTTTTTGCGCATGATGATGATTTTTTTTTTTTTTTATCCC [CCCTA] land in?
Return: low-valued

Enquiry: Class label required: "TTTTTGCATGCTGATGCGCATTTTTTTTTTTTTTTTACAT"
Return: low-valued

Enquiry: Dear colleague, I would appreciate it if you could identify the bin for TTTTTTGATCAGCATGCTGCTTTTTTTTTTTTTTTCGTAA [AATGC] and reply at your convenience.
Return: mid-valued

Enquiry: Quick check: band for TTTTTTGATCATGATGCTGCTTTTTTTTTTTTTTTCGCAA [AACGC]
Return: mid-valued

Enquiry: Please report the category associated with "TTTTTTCATCATGATCATCATTTTTTTTTTTTTTTGGCGG" , nothing else.
Return: high-valued

Enquiry: Entry "TTTTTTGATGATGATGATGATTTTTTTTTTTTTTTCCCCC" belongs to which category?
Return: low-valued

====

Listing of recorded background-corrected fluorescence by entry.
- Assay Comment: background-corrected fluorescence of 3'-dye-labeled ssDNA relative to brightest sequence (3'-GCGCG) (fraction); higher = brighter dye fluorescence (less quenching)
- Condition Summary: dye: Cy5 (3' terminal)
I'd appreciate a reply containing only the number, no unit.

Use these answered entries as a reference point.
- TTTTTTCATGATCATGCTGATTTTTTTTTTTTTTTGCGAC [CAGCG]: 0.394
- TTTTTTGCTGCTCATCATGATTTTTTTTTTTTTTTAAGGC [CGGAA]: 0.492
- TTTTTGCATGCTGCTGATGATTTTTTTTTTTTTTTTAACC [CCAAT]: 0.278
- TTTTTGCATCATCAGCATCATTTTTTTTTTTTTTTTGGTG [GTGGT]: 0.456
- TTTTTTGCTGATGATCAGCATTTTTTTTTTTTTTTACCGT [TGCCA]: 0.479

Here's the next entry for you.
For reference, reported background-corrected fluorescence for TTTTTGCATGAGCATGATGATTTTTTTTTTTTTTTTCTCC [CCTCT] stands at 0.268

====

- Assay Comment: background-corrected fluorescence of 3'-dye-labeled ssDNA relative to brightest sequence (3'-GCGCG) (fraction); higher = brighter dye fluorescence (less quenching)
- Condition Summary: dye: Cy3 (3' terminal)
Endpoint Name: background-corrected fluorescence
A bare number is all that is needed in reply.

* TTTTTTGATCATGATGATGCTTTTTTTTTTTTTTTCGCCA [ACCGC] | 0.49

Kindly consider the entry below.
According to the records, this sequence TTTTTTCATCATGCTCATGATTTTTTTTTTTTTTTGGAGC [CGAGG] displays background-corrected fluorescence of 0.549

====

- Assay Comment: background-corrected fluorescence of 3'-dye-labeled ssDNA relative to brightest sequence (3'-GCGCG) (fraction); higher = brighter dye fluorescence (less quenching)
- Condition Summary: dye: Cy5 (3' terminal)
We use 0.4 as the dividing line for background-corrected fluorescence: on or above the line is 1.0, below is 0.0.

Past entries and their recorded results:
* TTTTTTGATGCTGATGCGCATTTTTTTTTTTTTTTCACAT [TACAC] | 0.0
* TTTTTGCATGCTGATGCTGATTTTTTTTTTTTTTTTACAC [CACAT] | 0.0
* TTTTTTGCGCATGAGCATCATTTTTTTTTTTTTTTATCTG [GTCTA] | 0.0
* TTTTTTCATGATGATGATGATTTTTTTTTTTTTTTGCCCC [CCCCG] | 0.0

Enquiry: Please check the record TTTTTTCATGCTGATGATGATTTTTTTTTTTTTTTGACCC [CCCAG] and state if its background-corrected fluorescence is at or above 0.4.
Return: 0.0

Enquiry: Is reported background-corrected fluorescence greater than or equal to 0.4 here: TTTTTTCATGCTGCTCATGCTTTTTTTTTTTTTTTGAAGA [AGAAG]
Return: 1.0

====

- Assay Comment: background-corrected fluorescence of 3'-dye-labeled ssDNA relative to brightest sequence (3'-GCGCG) (fraction); higher = brighter dye fluorescence (less quenching)
- Condition Summary: dye: Cy3 (3' terminal)
Endpoint Name: background-corrected fluorescence
Quick one: just the number, no unit, thanks!

Would you please look over these solved cases?
* TTTTTTGCTGCTCAGCATCATTTTTTTTTTTTTTTAAGTG [GTGAA] | 0.587
* TTTTTTCAGCATCAGCATCATTTTTTTTTTTTTTTGTGTG | 0.604
* TTTTTTGATGATCATGCTCATTTTTTTTTTTTTTTCCGAG [GAGCC] | 0.593
* TTTTTTGCTGCTCAGCAGCATTTTTTTTTTTTTTTAAGTT [TTGAA] | 0.609
* TTTTTTGATGATCATCAGCATTTTTTTTTTTTTTTCCGGT [TGGCC] | 0.729
* TTTTTTGATGATGCTCATCATTTTTTTTTTTTTTTCCAGG [GGACC] | 0.642
* TTTTTTCATGATGCTGCTGATTTTTTTTTTTTTTTGCAAC [CAACG] | 0.469
* TTTTTGCATGAGCAGCATGCTTTTTTTTTTTTTTTTCTTA [ATTCT] | 0.5

The recorded background-corrected fluorescence for "TTTTTGCATGAGCAGCAGCATTTTTTTTTTTTTTTTCTTT" is 0.504

Kindly note the recorded background-corrected fluorescence for TTTTTTGAGCATGATCATCATTTTTTTTTTTTTTTCTCGG [GGCTC] , which is 0.641

Notebook: TTTTTTCATCATGCTCATGCTTTTTTTTTTTTTTTGGAGA [AGAGG] , background-corrected fluorescence read as 0.726

====

- Assay Comment: background-corrected fluorescence of 3'-dye-labeled ssDNA relative to brightest sequence (3'-GCGCG) (fraction); higher = brighter dye fluorescence (less quenching)
- Condition Summary: dye: Cy5 (3' terminal)
Is background-corrected fluorescence at least 0.5? Then Satisfied. If not, Not satisfied.

These solved cases illustrate the format of a correct answer.
• TTTTTTGATGAGCATCAGCATTTTTTTTTTTTTTTCCTGT [TGTCC] = Not satisfied
• TTTTTTGCGCATCAGCATGCTTTTTTTTTTTTTTTATGTA = Not satisfied
• TTTTTGCATCATGCTGATGATTTTTTTTTTTTTTTTGACC [CCAGT] = Not satisfied

Now, please, on to the next sequence.
Enquiry: Identify whether the reported background-corrected fluorescence of the following sequence is 0.5 or greater: TTTTTTGCTCATGATGAGCATTTTTTTTTTTTTTTAGCCT [TCCGA]
Return: Not satisfied

====

This listing pairs sequences with measured background-corrected fluorescence.
- Assay Comment: background-corrected fluorescence of 3'-dye-labeled ssDNA relative to brightest sequence (3'-GCGCG) (fraction); higher = brighter dye fluorescence (less quenching)
- Condition Summary: dye: Cy3 (3' terminal)

Guide cases for background-corrected fluorescence, answers given:
• TTTTTGCATGATGCGCATGCTTTTTTTTTTTTTTTTCATA [ATACT] = 0.518
• TTTTTTGCGCATGCGCAGCATTTTTTTTTTTTTTTATATT = 0.543
• TTTTTTGCTCAGCATGCTGATTTTTTTTTTTTTTTAGTAC [CATGA] = 0.485
• TTTTTTGCTGATCATCATGCTTTTTTTTTTTTTTTACGGA [AGGCA] = 0.683
• TTTTTTCATCATGCTGCTCATTTTTTTTTTTTTTTGGAAG [GAAGG] = 0.593

So for TTTTTGCATCATGATCATGATTTTTTTTTTTTTTTTGCGC [CGCGT] , the logged background-corrected fluorescence turned out to be 0.596

Item: "TTTTTGCAGCATCAGCAGCATTTTTTTTTTTTTTTTTGTT" | background-corrected fluorescence: 0.554

# background-corrected fluorescence (sequence: "TTTTTTCAGCAGCAGCATCATTTTTTTTTTTTTTTGTTTG" ) is 0.517

get_value(item= TTTTTTGCTCATGCTGATGCTTTTTTTTTTTTTTTAGACA [ACAGA] , readout=background-corrected fluorescence) returns 0.522

background-corrected fluorescence measured on TTTTTTGATGCTGCGCATGCTTTTTTTTTTTTTTTCAATA [ATAAC] = 0.574

Per the record, TTTTTGCATGATCAGCATGATTTTTTTTTTTTTTTTCGTC [CTGCT] has background-corrected fluorescence of 0.467

response.value for TTTTTGCATGAGCATGATGCTTTTTTTTTTTTTTTTCTCA [ACTCT] (field: background-corrected fluorescence) = 0.456

Notebook: TTTTTTGATGATGATGCGCATTTTTTTTTTTTTTTCCCAT [TACCC] , background-corrected fluorescence read as 0.49

// sample TTTTTTCATGCTGATCAGCATTTTTTTTTTTTTTTGACGT [TGCAG] , its background-corrected fluorescence was 0.601

The reported measurements were obtained from the supplement of paper PMC9428881.
